# target_or_test_system: Induced myeloid leukemia cell differentiation protein Mcl-1 (Homo sapiens)
# Sequence (Q07820 whole entry): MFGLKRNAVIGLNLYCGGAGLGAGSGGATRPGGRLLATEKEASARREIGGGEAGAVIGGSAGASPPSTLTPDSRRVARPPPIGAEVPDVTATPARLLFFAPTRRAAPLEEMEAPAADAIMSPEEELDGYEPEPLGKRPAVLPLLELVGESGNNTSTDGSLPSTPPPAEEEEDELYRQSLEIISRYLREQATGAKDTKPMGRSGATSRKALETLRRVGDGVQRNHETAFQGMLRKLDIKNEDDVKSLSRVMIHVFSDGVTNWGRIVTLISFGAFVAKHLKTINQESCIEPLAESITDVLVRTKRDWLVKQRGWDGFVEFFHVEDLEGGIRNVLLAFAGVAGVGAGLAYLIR
# Format: functional
The source made the active and inactive calls.
readout_name: IC50

O=C(COc1ccc2ccccc2c1)NNC(=O)c1ccc([N+](=O)[O-])cc1: 7.07 µM (active)
Cc1cccc(/N=C/c2sc3ccccc3c2O)n1: 1.57 µM (active)
O=C1NC(=S)NC(=O)C1=Cc1cccn1-c1ccc(O)cc1: 4.45 µM (active)

Exercise: What IC50 value was documented for this molecule, `Cc1ccc(-n2nc3cc(C)c(N)cc3n2)cc1` ?
Solution: 7.02 µM (active)

Exercise: Queued: `Cc1cccc(C)c1NC(=O)CSc1nnc(-c2ccco2)c(-c2ccco2)n1`
Solution: 4.92 µM (active)

Exercise: Same again, this time with `COc1ccc2c3c(cccc13)N(C)N=C2C`
Solution: 1.33 µM (active)
